# Tested on: Plasmodium falciparum
# test.protocol: GSK_TCMDC: Inhibition of Plasmodium falciparum 3D7 in whole red blood cells, using parasite LDH activity as an index of growth. Test compounds present at 2uM
# Format: functional
Quick list: Inhibition per entry.

| compound | Inhibition [%] |
| --- | --- |
| CCCCCCCNCc1c(O)ccc2c(CNCCCCCCC)c(O)ccc12.Cl | 100 |
| CC1(C)CN(CCC2CCC(NC(=O)/C=C/c3ccc(F)cc3F)CC2)Cc2ccc(C#N)cc21.Cl (centres undefined) | 88 |
| CN1CCN(c2ccc(Nc3nccc(-c4cnn5ncccc45)n3)cc2Cl)CC1 | 95 |
| COc1cc2ncnc(Nc3ccc(OCc4ccccc4Br)c(OC)c3)c2cc1OC.Cl | 100 |
| Cc1cc(OCCCn2ccnc2)ccc1-c1csc(/N=C(\N)NCc2ccccc2)n1 | 92 |
| Cc1cc(N)ncc1-c1ccc(NC(=O)Nc2cc(C(F)(F)F)ccc2F)cc1.O=C(O)C(F)(F)F | 100 |
| CC(=O)Nc1nc(C(=O)Nc2cccc(-c3cccc(-c4nc5cc(F)ccc5[nH]4)c3)c2)cs1 | 100 |
| COc1ccc2nc(C)cc(N/N=C/C=C/c3ccccc3)c2c1 | 100 |
| Cc1nnc2c(NC(=O)NC3CCCC3)cc3cc(-c4ccc(CN5CCCCC5)cc4)ccc3n12 | 99 |
| CC(NC(=O)c1cc(-c2ccccc2)nc2c1cnn2C(C)C)C1CC1 (centres undefined) | 100 |
| CC(C)c1ccc(N(CC(=O)N/N=C/c2ccc(C(F)(F)F)cc2)S(=O)(=O)c2ccc(C(F)(F)F)cc2)cc1 | 91 |
| COc1c(C2CCN(CCCCNC(=O)c3ccc(-c4ccc(C(F)(F)F)cc4)c(C(=O)OC(C)C)c3)CC2)ccc2c1CCCC2 | 90 |
| COc1ccc2nccc(N/N=C/c3ccc([N+](=O)[O-])cc3)c2c1 | 100 |
| Cl.N=c1n(CCN2CCCC2)c2ccccc2n1CC(O)c1ccc(Cl)c(Cl)c1 (centres undefined) | 100 |
| COc1ccccc1CCNc1nc(C)cc(N[C@@H](Cc2ccccc2)C(=O)Nc2ccccc2)n1.O=C(O)C(F)(F)F | 100 |
| COc1ccc(-c2cccc(NC(=O)c3cccc(Cl)c3)c2)cc1CN1CCNCC1.O=C(O)C(F)(F)F | 100 |
| O=C(Cc1c[nH]cn1)Nc1ccc(-c2ccc(-c3nc4cc(F)ccc4[nH]3)cc2)cc1 | 100 |
| COc1cccc(CN2Cc3ccccc3OC3(CCN(Cc4c[nH]c5cnccc45)CC3)C2)c1.O=C(O)C(F)(F)F | 83 |
| Cc1cc(-c2ccc(NC(=O)Nc3ccc4nccc(N5CCN(C)CC5)c4c3)cc2C)cc(C)n1.Cl | 100 |

Ref: ChEMBL document CHEMBL1157539
